B1: TPR t1 (parent)
chain: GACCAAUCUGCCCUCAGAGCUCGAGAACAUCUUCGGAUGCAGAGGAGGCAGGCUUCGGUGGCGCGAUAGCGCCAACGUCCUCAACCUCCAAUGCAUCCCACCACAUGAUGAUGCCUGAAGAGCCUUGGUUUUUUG

# Variants of: B1
# measurement-notes: polymerase ribozyme fitness, log enrichment relative to wild type (log ratio); higher = more active; in vitro selection for triplet polymerase activity
Mark label 1 for reported polymerase ribozyme fitness (log ratio) of -2 or greater; mark label 0 for anything smaller.

- C8G C12A C28G A29G G48U A68U C114A U125G: label 0
- A29U G61C: label 0
- U9G G52U C70U C88G C123A: label 1
- U59A A95U G128A: label 0
- A24G C70G C97A A121G: label 0
- C56A A83G G135U: label 0
- A50U C73A C80G C85A A90G G127U: label 0
- C8U G42U: label 1
- C73U C85U U116G: label 0
- G36A C70U: label 1
- U7A G63A C89U: label 1
- C12G C15G G45A G61C: label 0
- G93C C104A A118U: label 1
- C12U G17C G71A C97G C115G: label 0
- U14G C40U U59C A84G U129A: label 0
- C11A G52A A68G C101U G117C: label 0
- G60C G120U: label 1
- C8A G61A U131C: label 1
- A74C U106A G120U C124G: label 1
- U59G U81G U96G: label 0
- G60A C64G G69U U132A: label 1
- G48A U59A: label 1
- C12A C28U G60A G122A U133G: label 0
- A6U A26G C79U: label 0
- U9A A37C G63C: label 1
- A18G U129C: label 0
- A27G A41U: label 0
- C20U C72A: label 1
- C13A U21A A37C G93A: label 0
- U7G A46U: label 1
- C34U C85A A111U: label 0
- A43U A75U U126G: label 0
- G93A C98U: label 1
- C56U U109C: label 0
- C70G C73A: label 0
- C82G A84G: label 1
- G93A: label 1
- C12A C86A U112A: label 1
- A16U G47C C49U G61C C82G C89U A91G C115A: label 0
